Biological target: JAK1 (Homo sapiens, UniProt P23458)
Sequence (P23458 whole entry): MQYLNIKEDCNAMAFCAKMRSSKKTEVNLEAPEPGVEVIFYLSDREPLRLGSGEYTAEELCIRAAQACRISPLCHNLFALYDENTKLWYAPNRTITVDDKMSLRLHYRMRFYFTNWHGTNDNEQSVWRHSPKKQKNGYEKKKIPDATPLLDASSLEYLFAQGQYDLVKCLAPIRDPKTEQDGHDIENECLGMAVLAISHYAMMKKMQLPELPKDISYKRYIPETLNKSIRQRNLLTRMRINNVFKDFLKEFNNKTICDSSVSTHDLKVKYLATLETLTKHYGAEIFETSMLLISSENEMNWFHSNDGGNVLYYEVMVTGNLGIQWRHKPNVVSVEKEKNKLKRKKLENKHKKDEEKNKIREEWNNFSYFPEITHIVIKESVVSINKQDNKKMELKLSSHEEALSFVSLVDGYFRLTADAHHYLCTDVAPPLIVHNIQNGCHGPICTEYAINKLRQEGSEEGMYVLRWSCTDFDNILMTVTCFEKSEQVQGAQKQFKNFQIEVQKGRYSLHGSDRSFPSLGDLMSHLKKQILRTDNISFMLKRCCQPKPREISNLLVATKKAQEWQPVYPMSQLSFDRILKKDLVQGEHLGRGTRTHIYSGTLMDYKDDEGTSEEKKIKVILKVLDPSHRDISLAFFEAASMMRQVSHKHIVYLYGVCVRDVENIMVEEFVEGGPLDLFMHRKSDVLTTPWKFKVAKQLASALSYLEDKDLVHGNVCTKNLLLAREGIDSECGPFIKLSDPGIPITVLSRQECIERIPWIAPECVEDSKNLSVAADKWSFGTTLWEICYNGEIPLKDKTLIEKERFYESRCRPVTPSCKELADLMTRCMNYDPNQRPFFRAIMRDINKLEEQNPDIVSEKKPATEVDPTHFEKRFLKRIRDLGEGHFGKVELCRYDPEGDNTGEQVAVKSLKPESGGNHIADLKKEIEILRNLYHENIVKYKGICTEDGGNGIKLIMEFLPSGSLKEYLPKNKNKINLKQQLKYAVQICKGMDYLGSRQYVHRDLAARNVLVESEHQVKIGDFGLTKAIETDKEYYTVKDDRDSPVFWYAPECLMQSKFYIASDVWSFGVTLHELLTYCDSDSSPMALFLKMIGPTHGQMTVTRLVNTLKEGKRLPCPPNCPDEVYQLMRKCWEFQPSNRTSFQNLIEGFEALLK
Experiment: Caliper mobility shift kinase assay, JAK1
Assay type: biochemical
Details: 1 mM ATP concentration
IC50 values by entry
Field: numeric (nM). Do not append units.

{"molecule": "O=C([C@@H]1CC1(F)F)N1[C@H]2CS[C@@H]1CN(c1ccnc(Nc3cnn(CCO)c3)n1)C2", "IC50 (nM)": 10}
{"molecule": "O=C([C@@H]1CC1(F)F)N1[C@H]2CS[C@@H]1CN(c1ccnc(Nc3cnn(C4(CO)CC4)c3)n1)C2", "IC50 (nM)": 107}

Kindly review the next molecule as well.
Answer with the recorded IC50 of Cn1cc(Nc2nccc(N3CC4CSC(C3)N4C(=O)[C@@H]3CC3(F)F)n2)cn1 (stereo partly drawn) only.
32
